Property: apparent KD of MS2 coat protein; scope: individual sequences
# Test system: MS2 coat protein
# protocol-details: apparent KD of MS2 coat protein; designed switch direction (-1 OFF switch, 1 ON switch): -1; higher = weaker reporter binding
# test-context: input ligand: FMN 200 uM
Numbers only here, please. The scale is nM.

{"record-sequence": "AAUAGUAAUAAGGAUAUCACUAGCCUCGGCUAGUGAGAAGGUAUUACAUGAGGAUCACCCAUGUGGUCAAUUAA [E6/4-A2] (Eterna round: R97, puzzle: Exclusion 6)", "apparent KD of MS2 coat protein / nM": 1110}
{"record-sequence": "UACAUGAGGAUCACCCAUGUUUUGUCGUGUAUGGUAUUUAUCUAGGAUAUCAUAUUAUUUAUUUAUGAGAAGGAGAAUAUUAAU [JMF's solution 95] (Eterna round: R96, puzzle: Exclusion NG 3)", "apparent KD of MS2 coat protein / nM": 45.8}
{"record-sequence": "UCUCGCGGGCAAGGAUAUCCUACGUUGUUCUGGCCCGUGCAUGUUACAUGAGGAUCACCCAUGUGGGAGAAGGUGCGCCAGGGC [Design 37] (Eterna round: R96, puzzle: Exclusion NG 2)", "apparent KD of MS2 coat protein / nM": 51.3}

Lookup: Provide value of apparent KD of MS2 coat protein for this record tested with MS2 coat protein: AAGAAACAUGAGGAUCACCCAUGUGAGGAUAUGGCCCGCCCGGCGUGAGCUGGUUUUAUCAGAAGGCACAAAGG [salish99_ex1_r4_015] (Eterna round: R97, puzzle: Exclusion 1)
Found: 39.4

Lookup: Provide value of apparent KD of MS2 coat protein for this record tested with MS2 coat protein: UGAUCAGACCGAGGAUAUAUAUGUAGGACCCACGUGAGUGGGUCCAGUACAUGAGGAUCACCCAUGUAGAAGGCGGUCUGAUCU [JL ENG2 1.87] (Eterna round: R96, puzzle: Exclusion NG 2)
Found: 19.2

Lookup: Provide value of apparent KD of MS2 coat protein for this record tested with MS2 coat protein: AUAUUAAUAGUAAGGAUAUGCGUAUAUAUAGUUAUGCAGAAGGUACAUGAGGAUCACCCAUGUAUUAAUGUGUA [LRO-BmodExc4-03-Oppy's Opus] (Eterna round: R97, puzzle: Brourd's mod of Exclusion 4)
Found: 14.9

Lookup: Provide value of apparent KD of MS2 coat protein for this record tested with MS2 coat protein: AGUAUGCGGCAGGAUAUCCAUCCGCGAAAAGGUGGAGAAGGGCUGACAUGAGGAUCACCCAUGUGCGUCCUGUA [salish99_ex6_r4_030] (Eterna round: R97, puzzle: Exclusion 6)
Found: 25.3

Lookup: Provide value of apparent KD of MS2 coat protein for this record tested with MS2 coat protein: ACAUGAGGAUCACCCAUGUCCGGUUGGUCUGUUCCGGCUGUCGAGGAUAUAGUCCGGUGUUCGCGCUAGAAGGUGAGGGCUGGA [Aenatbe mod 46] (Eterna round: R96, puzzle: Exclusion NG 3)
Found: 775

Lookup: Provide value of apparent KD of MS2 coat protein for this record tested with MS2 coat protein: UAUUUAAGAGGAUAUACAUGAGGAUCACCCAUGUAUAAUAAAAUACAUGAUUUUUUAUGUAGAAGGCUUGGGUA [-19.1, -18.3 kcal, 36% A] (Eterna round: R97, puzzle: Exclusion 3)
Found: 72

Lookup: Provide value of apparent KD of MS2 coat protein for this record tested with MS2 coat protein: AGUGUGUGGCAGGAUAUGCGAUUUGUAGGUGAAGCAGAAGGGUCUACAUGAGGAUCACCCAUGUGUGCGGUUGA [Ex6 #18] (Eterna round: R97, puzzle: Exclusion 6)
Found: 457
